- assay-comment: Saluretic/diuretic screening in rats (method of Lipschitz as modified by Kagawa and Kahn)
- Type: in vivo, male LATI CFY rats
- test-context: Rattus norvegicus, single oral dose (5 mg/kg oral screen dose), 24 hours, read-out: Water diuresis, percentage of the simultaneously measured control values
endpoint-name: response vs control in vivo at 5 mg/kg (%)
Please reply with the bare figure in % and do not write the unit itself.

Prompt: I would be grateful if you could share the reported response vs control in vivo at 5 mg/kg for NS(=O)(=O)c1cc2c(cc1Cl)NCNS2(=O)=O [Hypothiazide, reference compound] .
Completion: 124

Prompt: How about this compound: NS(=O)(=O)c1cc(C(=O)Nn2c(-c3ccccc3)nc3cc(C(F)(F)F)ccc32)ccc1Cl
Completion: 97

Prompt: Entry COC(=O)c1ccc2c(c1)nc(C)n2NC(=O)c1ccc(Cl)c(S(N)(=O)=O)c1 please
Completion: 117

Prompt: Okay, and CSc1nc2cc(C(=O)O)ccc2n1NC(=O)c1ccc(Cl)c(S(N)(=O)=O)c1 ?
Completion: 99

----------
- assay-comment: Saluretic/diuretic screening in rats (method of Lipschitz as modified by Kagawa and Kahn)
- Type: in vivo, male LATI CFY rats
- test-context: Rattus norvegicus, single oral dose (5 mg/kg oral screen dose), 24 hours, read-out: K (potassium) diuresis, percentage of the simultaneously measured control values
endpoint-name: response vs control in vivo at 5 mg/kg (%)
Report the figure in % without appending any unit label.

Prompt: For the molecule shown here, Cc1nc2ccccc2n1NC(=O)c1ccc(Cl)c(S(N)(=O)=O)c1 , give the reported response vs control in vivo at 5 mg/kg.
Completion: 102

Prompt: Continue with NS(=O)(=O)c1cc2c(cc1Cl)NCNS2(=O)=O [Hypothiazide, reference compound]
Completion: 114

Prompt: Another molecule to look at: NS(=O)(=O)c1cc(C(=O)Nn2c(-c3ccccc3)nc3cc(C(F)(F)F)ccc32)ccc1Cl
Completion: 105

Prompt: Entry to check: Cc1nc2cc(C(=O)O)ccc2n1NC(=O)c1ccc(Cl)c(S(N)(=O)=O)c1
Completion: 109

Prompt: Request: NS(=O)(=O)c1cc(C(=O)O)c(NCc2ccco2)cc1Cl [Furosemide, reference compound]
Completion: 105

Prompt: Same read-out for NS(=O)(=O)c1cc(C(=O)Nn2cnc3ccccc32)ccc1Cl ?
Completion: 103

Prompt: Repeat with CSc1nc2cc(C(F)(F)F)ccc2n1NC(=O)c1ccc(Cl)c(S(N)(=O)=O)c1
Completion: 108

Prompt: What about NS(=O)(=O)c1cc(C(=O)Nn2cnc3cc(C(F)(F)F)ccc32)ccc1Cl ?
Completion: 106

Prompt: Can you handle COC(=O)c1ccc2c(c1)nc(C)n2NC(=O)c1ccc(Cl)c(S(N)(=O)=O)c1 next?
Completion: 115

Prompt: Note, next up: CSc1nc2cc(C(=O)O)ccc2n1NC(=O)c1ccc(Cl)c(S(N)(=O)=O)c1
Completion: 95

Prompt: # repeat for NS(=O)(=O)c1cc(C(=O)Nn2c(=S)[nH]c3cc(C(=O)O)ccc32)ccc1Cl.O [Example 1, monohydrate]
Completion: 122

Prompt: Follow-up item: NS(=O)(=O)c1cc(C(=O)Nn2cnc3cc(C(=O)O)ccc32)ccc1Cl
Completion: 120

Prompt: Subsequent entry: Cc1nc2cc(C(F)(F)F)ccc2n1NC(=O)c1ccc(Cl)c(S(N)(=O)=O)c1
Completion: 85

Prompt: Here is the next molecule: NS(=O)(=O)c1cc(C(=O)Nn2c(=O)[nH]c3cc(C(=O)O)ccc32)ccc1Cl
Completion: 110

Prompt: Try NS(=O)(=O)c1ccc2c(c1)[nH]c(=S)n2NC(=O)c1ccc(Cl)c(S(N)(=O)=O)c1 next.
Completion: 104
